Molecular target: hOX1R (Homo sapiens, UniProt O43613)
Test: FLIPR Ca2+ Flux Assay, CHO cells expressing orexin-1 receptor
Settings: 70 pM Ala-6,12 orexin-A agonist
assay.readout: IC50

C[C@@H]1CC[C@@H](Oc2cccc3c2C(=O)OC3(C)C)CN1C(=O)c1ccccc1-n1nccn1 [Example 38] ... 10 µM

Record for Cc1nc(-c2cccc(F)c2C(=O)N2C[C@H](Oc3nccc4c3C(=O)OC4(C)C)CC[C@H]2C)no1 [Example 13] under target or system hOX1R (Homo sapiens, UniProt O43613): IC50 reported as ≥ 10 µM

# value of IC50, hOX1R (Homo sapiens, UniProt O43613), item Cc1nc(-c2c(F)cccc2C(=O)N2C[C@H](Oc3nccc4c3C(=O)OC4(C)C)CC[C@H]2C)no1 [Example 16] = 10 µM

Sample C[C@@H]1CC[C@@H](Oc2nccc3c2C(=O)OC3(C)C)CN1C(=O)c1cc(Cl)ccc1-n1nccn1 [Example 3] , system: hOX1R (Homo sapiens, UniProt O43613). Its IC50 is 3.74 µM

====

Target: UniProt:O43613
Test: FLIPR Ca2+ Flux Assay, CHO cells expressing orexin-1 receptor
Conditions: 70 pM Ala-6,12 orexin-A agonist
assay.readout: pIC50
Answer as the number alone; pIC50 is minus log10 of concentration in mol/L.

C[C@@H]1CC[C@@H](Oc2nccc3c2C(=O)OC3(C)C)CN1C(=O)c1ccccc1-n1nccn1 ... 5.08
COc1ccc(C(=O)N2C[C@H](Oc3nccc4c3C(=O)OC4(C)C)CC[C@H]2C)c(-n2nccn2)c1 ... 5.00
C[C@@H]1CC[C@@H](Oc2nccc3c2COC3=O)CN1C(=O)c1ccccc1-n1nccn1 ... 5.33
Cc1nc(-c2ccc(F)cc2C(=O)N2C[C@H](Oc3nccc4c3C(=O)OC4(C)C)CC[C@H]2C)no1 ... 5.00
C[C@@H]1CC[C@@H](Oc2nccc3c2C(=O)OC3(C)C)CN1C(=O)c1ccccc1-c1ncccn1 ... 5.49

Sample Cc1cccc(C(=O)N2C[C@H](Oc3nccc4c3C(=O)OC4(C)C)CC[C@H]2C)c1-n1nccn1 ; pIC50 observed: 5.51

For reference, reported pIC50 for Cc1ccc(-n2nccn2)c(C(=O)N2C[C@H](Oc3nccc4c3C(=O)OC4(C)C)CC[C@H]2C)c1 stands at 5.60

====

Target: hOX1R (Homo sapiens)
Assay: FLIPR Ca2+ Flux Assay, CHO cells expressing orexin-1 receptor
Conditions: 70 pM Ala-6,12 orexin-A agonist
Decide using IC50 alone. Strictly below 9 µM: true (1). Equal to or above 9 µM: false (0).

C[C@@H]1CC[C@@H](Oc2nccc3c2C(=O)OC3(C)C)CN1C(=O)c1cc(F)ccc1-n1nccn1 ... false (0)
C[C@@H]1CC[C@@H](Oc2nccc3c2COC3=O)CN1C(=O)c1ccccc1-c1ncccn1 ... true (1)
C[C@@H]1CC[C@@H](Oc2nccc3c2C(=O)OC3(C)C)CN1C(=O)c1ccc(F)cc1-c1ncccn1 ... false (0)

Query: Below 9 µM on IC50? Entry C[C@@H]1CC[C@@H](N(C)c2nccc3c2C(=O)OC3(C)C)CN1C(=O)c1ccccc1-n1ncnn1
Reply: false (0)

Query: Please let me know if C[C@@H]1CC[C@@H](Oc2nccc3c2COC3=O)CN1C(=O)c1cscc1-n1nccn1 shows IC50 below 9 µM.
Reply: false (0)

====

Biological target: human orexin-2 receptor (Homo sapiens (Human), UniProt O43614)
Sequence (O43614 whole entry): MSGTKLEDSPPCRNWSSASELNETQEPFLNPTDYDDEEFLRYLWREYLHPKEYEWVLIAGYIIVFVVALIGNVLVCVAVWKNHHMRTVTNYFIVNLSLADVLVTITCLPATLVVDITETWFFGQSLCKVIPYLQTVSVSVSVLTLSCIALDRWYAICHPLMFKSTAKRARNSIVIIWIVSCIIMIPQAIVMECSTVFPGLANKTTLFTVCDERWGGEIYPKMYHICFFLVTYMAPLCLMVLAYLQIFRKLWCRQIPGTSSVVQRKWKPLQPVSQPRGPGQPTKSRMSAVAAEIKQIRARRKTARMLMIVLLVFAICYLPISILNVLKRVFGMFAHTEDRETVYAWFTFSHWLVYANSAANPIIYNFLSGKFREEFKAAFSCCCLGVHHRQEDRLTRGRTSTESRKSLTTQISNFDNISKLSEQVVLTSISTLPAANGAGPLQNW
Assay: FLIPR Ca2+ Flux Assay, CHO cells expressing orexin-2 receptor
Settings: 70 pM Ala-6,12 orexin-A agonist, read-out: hOX2R FLIPR IC50
Listing: IC50 of selected compounds
Entry rule: numbers only, all in nM.

For orientation, consider the following solved cases.
C[C@@H]1CC[C@@H](Oc2nccc3c2COC3=O)CN1C(=O)c1ccsc1-n1nccn1 [Example 29] ... 16
Cc1noc(-c2cc(F)ccc2C(=O)N2C[C@H](Oc3nccc4c3C(=O)OC4(C)C)CC[C@H]2C)n1 [Example 19] ... 382
C[C@@H]1CC[C@@H](Oc2nccc3c2C(=O)OC3(C)C)CN1C(=O)c1ccsc1-c1ncccn1 [Example 25] ... 44
Cc1nc(-c2cc(F)ccc2C(=O)N2C[C@H](Oc3nccc4c3C(=O)OC4(C)C)CC[C@H]2C)no1 [Example 15] ... 232
C[C@@H]1CC[C@@H](Oc2nccc3c2C(=O)OC3(C)C)CN1C(=O)c1c(F)cccc1-n1nccn1 [Example 2] ... 44
C[C@@H]1CC[C@@H](Oc2nccc3c2COC3=O)CN1C(=O)c1ccc(F)cc1-n1nccn1 [Example 32] ... 15

Item C[C@@H]1CC[C@@H](Nc2nccc3c2C(=O)O[C@@H]3C)CN1C(=O)c1ccccc1-n1nccn1 [Example 47] was tested on human orexin-2 receptor (Homo sapiens (Human), UniProt O43614); the reported IC50 is 35

====

Target: hOX1R (Homo sapiens)
Assay: FLIPR Ca2+ Flux Assay, CHO cells expressing orexin-1 receptor
Type: cell-based
Details: 70 pM Ala-6,12 orexin-A agonist
The reader will find reported pIC50 values listed item by item below.
Scale explanation: pIC50 corresponds to minus log10 of a concentration expressed in moles per litre.

Recorded pIC50, per entry:
C[C@@H]1CC[C@@H](Nc2nccc3c2C(=O)OC3(C)C)CN1C(=O)c1ccccc1-c1ncccn1 ... 5.54
Cc1nc(-c2cc(F)ccc2C(=O)N2C[C@H](Oc3nccc4c3C(=O)OC4(C)C)CC[C@H]2C)no1 ... 5.00
C[C@@H]1CC[C@@H](Oc2nccc3c2C(=O)OC3(C)C)CN1C(=O)c1cccc(F)c1-c1ncccn1 ... 5.00
C[C@@H]1CC[C@@H](Nc2nccc3c2C(=O)OC3(C)C)CN1C(=O)c1ccsc1-c1ncccn1 ... 6.00
C[C@@H]1CC[C@@H](Nc2nccc3c2C(=O)OC3(C)C)CN1C(=O)c1ccsc1-n1nccn1 ... 5.00

Next item in the queue.
pIC50 for C[C@@H]1CC[C@@H](Nc2nccc3c2C(=O)O[C@@H]3C)CN1C(=O)c1ccccc1-n1nccn1 is 5.14

====

Target: human orexin-2 receptor (Homo sapiens (Human))
Assay: FLIPR Ca2+ Flux Assay, CHO cells expressing orexin-2 receptor
Conditions: 70 pM Ala-6,12 orexin-A agonist, read-out: hOX2R FLIPR IC50
Item-by-item account of pIC50
// pIC50 is dimensionless: -log10 of concentration (M)

C[C@@H]1CC[C@@H](Oc2nccc3c2COC3=O)CN1C(=O)c1cscc1-n1nccn1 ... 7.59
C[C@@H]1CC[C@@H](Oc2nccc3c2C(=O)OC3(C)C)CN1C(=O)c1ccc(Cl)cc1-n1nccn1 ... 7.27
C[C@@H]1CC[C@@H](Nc2nccc3c2C(=O)OC3(C)C)CN1C(=O)c1ccccc1-c1ncccn1 ... 7.59
C[C@@H]1CC[C@@H](Oc2nccc3c2COC3=O)CN1C(=O)c1ccccc1-n1nccn1 ... 7.80
C[C@@H]1CC[C@@H](Oc2nccc3c2COC3=O)CN1C(=O)c1ccccc1C1(C#N)CC1 ... 7.92
C[C@@H]1CC[C@@H](Oc2nccc3c2C(=O)OC3(C)C)CN1C(=O)c1cc(F)ccc1-n1nccn1 ... 7.64
C[C@@H]1CC[C@@H](Oc2nccc3c2C(=O)OC3(C)C)CN1C(=O)c1c(F)cccc1-c1ncccn1 ... 6.96
C[C@@H]1CC[C@@H](Oc2nccc3c2C(=O)OC3(C)C)CN1C(=O)c1ccccc1-n1nccn1 ... 7.70
C[C@@H]1CC[C@@H](Nc2nccc3c2C(=O)OC3(C)C)CN1C(=O)c1ccsc1-n1nccn1 ... 7.72
C[C@@H]1CC[C@@H](Oc2nccc3c2C(=O)OC3(C)C)CN1C(=O)c1cc(Cl)ccc1-n1nccn1 ... 7.38

Now turn to the next compound.
Looking up C[C@@H]1CC[C@@H](Oc2cccc3c2C(=O)OC3(C)C)CN1C(=O)c1ccccc1-n1nccn1 , I found its pIC50 recorded as 6.77

====

Molecular target: human orexin-2 receptor (Homo sapiens (Human), UniProt O43614)
Assay: FLIPR Ca2+ Flux Assay, CHO cells expressing orexin-2 receptor
Conditions: 70 pM Ala-6,12 orexin-A agonist, read-out: hOX2R FLIPR IC50
pIC50: −log10 of the molar value.
Respond with Y for pIC50 values of 7 and above, N for values below.

Would you please look over these solved cases?
C[C@@H]1CC[C@@H](Oc2nccc3c2COC3=O)CN1C(=O)c1ccccc1-c1ncccn1 [Example 36] ... Y
C[C@@H]1CC[C@@H](Oc2nccc3c2COC3=O)CN1C(=O)c1ccccc1CS(C)(=O)=O [Example 33] ... Y
C[C@@H]1CC[C@@H](Oc2nccc3c2COC3=O)CN1C(=O)c1ccsc1-c1ncccn1 [Example 37] ... Y
COc1ccc(C(=O)N2C[C@H](Oc3nccc4c3C(=O)OC4(C)C)CC[C@H]2C)c(-n2nccn2)n1 [Example 12] ... N
Cc1ccc(-n2nccn2)c(C(=O)N2C[C@H](Oc3nccc4c3C(=O)OC4(C)C)CC[C@H]2C)c1 [Example 5] ... Y
C[C@@H]1CC[C@@H](Oc2nccc3c2C(=O)OC3(C)C)CN1C(=O)c1ccc(F)cc1-c1ncccn1 [Example 23] ... N
C[C@@H]1CC[C@@H](Nc2nccc3c2C(=O)OC3(C)C)CN1C(=O)c1ccccc1-n1nccn1 [Example 39] ... Y
C[C@@H]1CC[C@@H](Oc2nccc3c2C(=O)OC3(C)C)CN1C(=O)c1c(F)cccc1-n1nccn1 [Example 6] ... Y
C[C@@H]1CC[C@@H](Oc2nccc3c2C(=O)OC3(C)C)CN1C(=O)c1ccc(F)cc1-n1nccn1 [Example 10] ... Y
C[C@@H]1CC[C@@H](Nc2nccc3c2C(=O)OC3(C)C)CN1C(=O)c1ccccc1-n1ncnn1 [Example 41] ... Y

Query: Threshold query (pIC50 >= 7) on Cc1cccc(C(=O)N2C[C@H](Oc3nccc4c3C(=O)OC4(C)C)CC[C@H]2C)c1-n1nccn1 [Example 8]
Reply: Y

Query: Does C[C@@H]1CC[C@@H](Nc2nccc3c2C(=O)OC3(C)C)CN1C(=O)c1ccsc1-c1ncccn1 [Example 44] have a reported pIC50 of at least 7?
Reply: Y

Query: Can C[C@@H]1CC[C@@H](Oc2nccc3c2COC3=O)CN1C(=O)c1cscc1-c1ncccn1 [Example 35] be said to have pIC50 at or above 7?
Reply: Y
